assay: Stability of DNPs by DLS after storage at 5° C.; format: physicochemical; conditions: after 62 days at 5° C.; IAJD 4.0 mg/mL + Luc-mRNA 0.1 mg/mL, acetate buffer
Label Criterion met when PDI is strictly below 0.3; at or above that, label Criterion not met.

INPUT: I wonder whether `CCCCCCCCCCCCCCOc1cc(COC(=O)CCCN2CCN(CCO)CC2)cc(OCCCCCCCCCCC)c1` has PDI below 0.3. Can you tell?
OUTPUT: Criterion met

----------
The molecules listed here are annotated with their pKa.
experiment: pKa measurements of individual IAJD molecules by titration; assay type: physicochemical; conditions: ethanol saturated with NaCl, titrated with 0.1 M aqueous HCl; Table 15; individual IAJD molecule, titration
Give the figure by itself; no unit, no explanation.

Before answering, review these 3 worked examples.
Line notation: CCCCCCCCCCCCCCCCCCOc1cc(COC(=O)CCCN2CCN(C)CC2)cc(OCCCCCCCCCCCC)c1
Numeric readout: 6.42
//
Line notation: CCCCCCCCCCCCCCCCCCOc1cc(COC(=O)CCCN2CCN(CCO)CC2)cc(OCCCCCCCCCCCCCCCCCC)c1
Numeric readout: 6.31
//
Line notation: CCCCCCCCCCCCCCCCCCOc1cc(COC(=O)CCCN2CCN(C)CC2)cc(OCCCCCCCCCCC)c1
Numeric readout: 6.19

INPUT: Entry under review: `CCCCCCCCCCCCOc1ccc(COC(=O)CCCN2CCN(C)CC2)cc1OCCCCCCCCCCCC` . Reported pKa?
OUTPUT: 6.46

INPUT: Entry under review: `CCCCCCCCCCCCOc1cc(COC(=O)CCCN2CCN(CCO)CC2)cc(OCCCCCCCCCCCC)c1` . Reported pKa?
OUTPUT: 6.38

INPUT: Entry under review: `CCCCCCCCCCCCCCOc1cc(CNC(=O)CCCN2CCN(C)CC2)cc(OCCCCCCCCCCCCCC)c1` . Reported pKa?
OUTPUT: 6.59

INPUT: Entry under review: `CCCCCCCCCCCCCCOc1cc(COC(=O)CCCN2CCN(C)CC2)cc(OCCCCCCCCCCCCCC)c1` . Reported pKa?
OUTPUT: 6.32

----------
experiment: DLS size of dendrimersomes assembled from glycerol-JDs in water at different concentrations; assay type: physicochemical; details: JD 0.4 mg·mL−1 in water
Value kind: PDI
Give the figure by itself; no unit, no explanation.

Before answering, review these 4 worked examples.
Compound: CCCCCCCCCCCCOc1cc(OCCCCCCCCCCCC)cc(C(=O)OCC(C)(COC(=O)c2cc(OCCCCCCCCCCCC)cc(OCCCCCCCCCCCC)c2)C(=O)OC[C@H](COC(=O)c2cc(OCCOCCOCCOC)c(OCCOCCOCCOC)c(OCCOCCOCCOC)c2)OC(=O)c2cc(OCCOCCOCCOC)c(OCCOCCOCCOC)c(OCCOCCOCCOC)c2)c1 [Compound 2S, (3,5)-12G1-BMPA-GC-(S)-(3,4,5)-3EO-G1]
PDI: 0.205

Compound: CCCCCCCCCCCCOc1cc(OCCCCCCCCCCCC)cc(C(=O)OC[C@@H](COC(=O)C(C)(COC(=O)c2cc(OCCOCCOCCOC)c(OCCOCCOCCOC)c(OCCOCCOCCOC)c2)COC(=O)c2cc(OCCOCCOCCOC)c(OCCOCCOCCOC)c(OCCOCCOCCOC)c2)OC(=O)c2cc(OCCCCCCCCCCCC)cc(OCCCCCCCCCCCC)c2)c1 [Compound 1S, (3,5)-12G1-GC-(S)-BMPA-(3,4,5)-3EO-G1]
PDI: 0.258

Compound: CCCCCCCCCCCCOc1cc(OCCCCCCCCCCCC)cc(C(=O)OCC(COC(=O)C(C)(COC(=O)c2cc(OCCOCCOCCOC)c(OCCOCCOCCOC)c(OCCOCCOCCOC)c2)COC(=O)c2cc(OCCOCCOCCOC)c(OCCOCCOCCOC)c(OCCOCCOCCOC)c2)OC(=O)c2cc(OCCCCCCCCCCCC)cc(OCCCCCCCCCCCC)c2)c1 (racemic) [Compound 1rac, (3,5)-12G1-GC-(rac)-BMPA-(3,4,5)-3EO-G1]
PDI: 0.275

Compound: CCCCCCCCCCCCOc1cc(OCCCCCCCCCCCC)cc(C(=O)OC[C@H](COC(=O)C(C)(COC(=O)c2cc(OCCOCCOCCOC)c(OCCOCCOCCOC)c(OCCOCCOCCOC)c2)COC(=O)c2cc(OCCOCCOCCOC)c(OCCOCCOCCOC)c(OCCOCCOCCOC)c2)OC(=O)c2cc(OCCCCCCCCCCCC)cc(OCCCCCCCCCCCC)c2)c1 [Compound 1R, (3,5)-12G1-GC-(R)-BMPA-(3,4,5)-3EO-G1]
PDI: 0.228

Lab note: next compound to report on.
INPUT: Entry under review: CCCCCCCCCCCCOc1cc(OCCCCCCCCCCCC)cc(C(=O)OCC(C)(COC(=O)c2cc(OCCCCCCCCCCCC)cc(OCCCCCCCCCCCC)c2)C(=O)OC[C@@H](COC(=O)c2cc(OCCOCCOCCOC)c(OCCOCCOCCOC)c(OCCOCCOCCOC)c2)OC(=O)c2cc(OCCOCCOCCOC)c(OCCOCCOCCOC)c(OCCOCCOCCOC)c2)c1 [Compound 2R, (3,5)-12G1-BMPA-GC-(R)-(3,4,5)-3EO-G1] . Reported PDI?
OUTPUT: 0.263

----------
The molecules listed here are annotated with their Luminescence.
test system: HEK293T cells; experiment: In vitro Luc-mRNA transfection, luciferase luminescence expression in HEK293T cells; type: cell-based, human; design: unit not given here; settings: Table 16; HEK 293T cells, 125 ng/well, n=3

Before answering, review these 5 worked examples.
Molecule: CCCCCCCCCCCCCCCCCOc1cc(COC(=O)c2cc(OCCOCCOCCCC(=O)CCCN3CCCCC3)c(OCCOCCOCCOCc3ccccc3)c(OCCOCCOCCOC(=O)CCCN3CCCCC3)c2)cc(OCCCCCCCCCCC)c1 [IAJD 158]
Result: 83
//
Molecule: CCCCCCCCCCCOc1cc(COC(=O)CCCN2CCN(CCO)CC2)cc(OCC(CC)CCCC)c1 (stereo not drawn) [IAJD 130]
Result: 76,345
//
Molecule: CCCCCCCCCCCCCCCOc1cc(COC(=O)CCCN2CCN(CCO)CC2)cc(OCCCCCCCCCCCCCC)c1 [IAJD 148]
Result: 139,420
//
Molecule: CCCCCCCCCCCCCCCCCCOc1cc(COC(=O)CCCN2CCN(C)CC2)cc(OCCCCCCCCCCCCC)c1 [IAJD 177]
Result: 4,343
//
Molecule: CCCCCCCCCCCOc1cc(COC(=O)c2cc(OCCOCCOCCCC(=O)CCCN3CCCCC3)c(OCCOCCOCCOCc3ccccc3)c(OCCOCCOCCOC(=O)CCCN3CCCCC3)c2)cc(OCCCCCCCCCCC)c1 [IAJD 111]
Result: 41

Lab note: next molecule to report on.
INPUT: Recorded Luminescence for CCCCCCCCCCCCCCCCCCOc1cc(COC(=O)CCCN2CCN(C)CC2)cc(OCCCCCCCCCCCCCCC)c1 [IAJD 153] with HEK293T cells, please?
OUTPUT: 8,860

----------
system: lung; assay: In vivo mRNA delivery, IVIS imaging of organs: lung; design: species or system mice; key: lung: strong: Strong meant the luminescence intensity in that organ was relatively high, compared to other organs; weak: Weak meant the luminescence intensity in that organ was relatively low, compared to other organs; conditions: Table 17; mice, IVIS, 4-6 h after injection; intensity relative to other organs
Value kind: Organs with luminescence: lung

Before answering, review these 6 worked examples.
Compound: CCCCCCCCCCCCCCCCOc1cc(COC(=O)CCCN2CCN(C)CC2)cc(OCCCCCCCCCCC)c1
Result: Lung (weak),
//
Compound: CCCCCCCCCCCCCCOc1cc(COC(=O)c2cc(OCCOCCOCCCC(=O)CCCN3CCCCC3)c(OCCOCCOCCOCc3ccccc3)c(OCCOCCOCCOC(=O)CCCN3CCCCC3)c2)cc(OCCCCCCCCCCC)c1
Result: Lung (strong)
//
Compound: CCCCCCCCCCCCCCOc1cc(CNC(=O)CCCN2CCN(C)CC2)cc(OCCCCCCCCCCC)c1
Result: Lung (strong),
//
Compound: CCCCCCCCCCCCCCCCCCOc1cc(COC(=O)CCCN2CCN(CCO)CC2)cc(OCCCCCCCCCCCCC)c1
Result: Lung (weak),
//
Compound: CCCCCCCCCCCCCCCOc1cc(COC(=O)CCCN2CCN(CCO)CC2)cc(OCCCCCCCCCCCCC)c1
Result: Lung (strong),
//
Compound: CCCCCCCCCCCCCCCOc1cc(COC(=O)CCCN2CCN(C)CC2)cc(OCCCCCCCCCC)c1
Result: Lung (weak),

INPUT: Entry under review: `CCCCCCCCCCCCCCCOc1cc(COC(=O)CCCN2CCN(C)CC2)cc(OCCCCCCCCCCC)c1` . Reported Organs with luminescence: lung?
OUTPUT: Lung (weak),

INPUT: Entry under review: `CCCCCCCCCCCCCCCCCCOc1cc(COC(=O)CCCN2CCN(C)CC2)cc(OCCCCCCCCCCC)c1` . Reported Organs with luminescence: lung?
OUTPUT: Lung (weak),

INPUT: Entry under review: CCCCCCCCCCCCCCCOc1cc(COC(=O)CCCN2CCN(CCO)CC2)cc(OCC(CC)CCCC)c1 (centres unmarked) . Reported Organs with luminescence: lung?
OUTPUT: Lung (weak),

INPUT: Entry under review: CCCCCCCCCCCOc1cc(COC(=O)c2cc(OCCOCCOCCCC(=O)CCCN3CCCCC3)c(OCCOCCOCCOCc3ccccc3)c(OCCOCCOCCOC(=O)CCCN3CCCCC3)c2)cc(OCC(CC)CCCC)c1 (centres unmarked) . Reported Organs with luminescence: lung?
OUTPUT: Lung (strong),

INPUT: Entry under review: `CCCCCCCCCCCOc1cc(COC(=O)CCCN2CCN(CCO)CC2)cc(OCCCCCCCCC)c1` . Reported Organs with luminescence: lung?
OUTPUT: Lung (weak),
